# Tested on: Septoria tritici, KUK-1-21 Strain
# Test Method Notes: Test for wheat leaf blotch, fluoroimide and/or SDHI agent sprayed on wheat pots, lesion area index 21 days after inoculation
# Format: in vivo
# Run Parameters: SDHI agent 3 ppm + fluoroimide 50 ppm; 21 days
Reported Metric: Control effect Combination with fluoroimide (%)
State the answer as a number, implicitly in %.

Compound	Observed Result
CC(C)C1C2CCC1c1c(NC(=O)c3cn(C)nc3C(F)F)cccc12 (stereo not shown) [isopyrazam]	85

In: Report Control effect Combination with fluoroimide for Cn1cc(C(=O)Nc2ccc(F)cc2-c2ccc(Cl)c(Cl)c2)c(C(F)F)n1 [bixafen] please.
Out: 100

In: Report Control effect Combination with fluoroimide for O=C(Nc1ccccc1-c1ccc(Cl)cc1)c1cccnc1Cl [boscalid] please.
Out: 65

In: Report Control effect Combination with fluoroimide for Cn1cc(C(=O)Nc2ccccc2-c2cc(F)c(F)c(F)c2)c(C(F)F)n1 [fluxapyroxad] please.
Out: 90
